- System: Mycobacterium smegmatis ATCC 700084
- testDetails: In vitro antimycobacterial activity, broth dilution MIC
- Format: cell-based
- conditions: Mycolicibacterium smegmatis, ATCC700084, 72 h; M. smegmatis ATCC 700084, three days; read-out: MIC MS
observedProperty: MIC (µM)
Numeric answer only, unit µM assumed.

Worked set:
compound	observedProperty	endpointUnit	reportedResult
O=C(/C=C/c1ccc(Cl)c(Cl)c1)Nc1ccc(C(F)(F)F)cc1	MIC	µM	2.78
O=C(/C=C/c1ccc(Cl)c(Cl)c1)Nc1ccccc1	MIC	µM	13.6
O=C(/C=C/c1ccc(Cl)c(Cl)c1)Nc1cc(C(F)(F)F)cc(C(F)(F)F)c1	MIC	µM	2.34
O=C(/C=C/c1ccc(Cl)c(Cl)c1)Nc1ccc(OC(F)(F)F)cc1	MIC	µM	10.6
O=C(/C=C/c1ccc(Cl)cc1)Nc1cc(Cl)cc(Cl)c1	MIC	µM	24.5
O=C(/C=C/c1ccc(Cl)c(Cl)c1)Nc1cccc(C(F)(F)F)c1	MIC	µM	5.55
O=C(/C=C/c1ccc(Cl)cc1)Nc1cc(C(F)(F)F)cc(C(F)(F)F)c1	MIC	µM	2.54
CO[C@H]1/C=C/O[C@@]2(C)Oc3c(C)c(O)c4c(O)c(c(/C=N/N5CCN(C)CC5)c(O)c4c3C2=O)NC(=O)/C(C)=C\C=C\[C@H](C)[C@H](O)[C@@H](C)[C@@H](O)[C@@H](C)[C@H](OC(C)=O)[C@@H]1C [RIF, rifampicin, reference compound]	MIC	µM	19.4

Attention now turns to another entry.
Query string: Please look up its MIC: NNC(=O)c1ccncc1 [INH, isoniazid, reference compound]
Result string: 117

---

- testDetails: Lipophilicity determination by RP-HPLC (log k, log D)
- Format: physicochemical
- conditions: MeOH 72%/H2O 28%
Could you mark each record rule met if its log k falls strictly under 0.6, and rule not met if it equals or exceeds it?

                        recordsmiles  classification
0  O=C(/C=C/c1ccc(Cl)cc1)Nc1ccccc1Cl        rule met

// switching to the query compound
Query string: Consider the compound O=C(/C=C/c1ccc(Cl)cc1)Nc1ccc(OC(F)(F)F)cc1Br . Is its log k strictly less than 0.6?
Result string: rule not met

---

- System: S. aureus, MRSA, E. faecalis, VRE, M. smegmatis, M. marinum
- testDetails: In vitro antimicrobial screening, all tested strains
- Assay type: cell-based
- conditions: antibacterial/antimycobacterial screening
observedProperty: antimicrobial activity (in words)

In [3]: df
Out[3]:
                               recordsmiles            reportedresult
0  O=C(/C=C/c1ccc(Cl)c(Cl)c1)Nc1cc(C(F)(F)F)cc(C(F)(F)F)c1                    active
1  O=C(/C=C/c1ccc(Cl)c(Cl)c1)Nc1ccc(C(F)(F)F)cc1                    active
2  O=C(/C=C/c1ccc(Cl)cc1)Nc1cccc(C(F)(F)F)c1           showed activity
3  O=C(/C=C/c1ccc(Cl)cc1)Nc1cc(C(F)(F)F)cc(C(F)(F)F)c1           showed activity
4  O=C(/C=C/c1ccc(Cl)c(Cl)c1)Nc1ccc(OC(F)(F)F)cc1Br  total loss of any effect

Query string: Please look up its antimicrobial activity (in words): O=C(/C=C/c1ccc(Cl)cc1)Nc1cc(Cl)cc(Cl)c1
Result string: showed activity

Query string: Please look up its antimicrobial activity (in words): O=C(/C=C/c1ccc(Cl)c(Cl)c1)Nc1cccc(C(F)(F)F)c1
Result string: active

Query string: Please look up its antimicrobial activity (in words): O=C(/C=C/c1ccc(Cl)cc1)Nc1ccc(OC(F)(F)F)cc1Br
Result string: total loss of any effect

Query string: Please look up its antimicrobial activity (in words): O=C(/C=C/c1ccc(Cl)c(Cl)c1)Nc1ccc(OC(F)(F)F)cc1
Result string: active

---

- testDetails: Lipophilicity determination by RP-HPLC (log k, log D)
- Type: physicochemical
- conditions: MeOH 72%/acetate buffered saline pH 7.4
- Protocol: In addition to the mentioned ADME profile, it is responsible for interactions with biological targets. […] In this study, lipophilicity was measured by reversed-phase high-performance liquid chromatography (RP-HPLC) under isocratic conditions with methanol as the organic modifier in the aqueous mobile phase and the logarithm of the capacity factor k was calculated, which is used as the lipophilicity index converted to the log P scale. […]
Could you mark each record 1.0 if its log D7.4 falls strictly under 0.9, and 0.0 if it equals or exceeds it?

For orientation, consider the following solved cases.
>>> print(df.to_string())
                                   compound  classification
0  O=C(/C=C/c1ccc(Cl)c(Cl)c1)Nc1ccccc1F [2b]             1.0
1  O=C(/C=C/c1ccc(Cl)cc1)Nc1ccccc1C(F)(F)F [1h]             1.0
2  O=C(/C=C/c1ccc(Cl)c(Cl)c1)Nc1ccccc1Cl [2e]             1.0

Query string: Consider the compound O=C(/C=C/c1ccc(Cl)cc1)Nc1ccccc1F [1b] . Is its log D7.4 strictly less than 0.9?
Result string: 1.0

Query string: Consider the compound O=C(/C=C/c1ccc(Cl)cc1)Nc1cccc(F)c1 [1c] . Is its log D7.4 strictly less than 0.9?
Result string: 1.0

Query string: Consider the compound O=C(/C=C/c1ccc(Cl)cc1)Nc1ccc(C(F)(F)F)cc1 [1j] . Is its log D7.4 strictly less than 0.9?
Result string: 1.0

Query string: Consider the compound O=C(/C=C/c1ccc(Cl)cc1)Nc1ccc(F)cc1 [1d] . Is its log D7.4 strictly less than 0.9?
Result string: 1.0

---

- Test system: vancomycin-resistant E. faecalis (VRE) 342B
- testDetails: In vitro antienterococcal activity, microtitration broth MIC
- Assay type: cell-based, Enterococcus faecalis
- conditions: 24 h, read-out: log(1/MIC [M]) VRE1 (converted)
// reported MIC per item

>>> print(df.to_string())
                               recordsmiles  reportedresult
0  O=C(/C=C/c1ccc(Cl)cc1)Nc1cccc(C(F)(F)F)c1    > 0.000794 M
1       O=C(/C=C/c1ccc(Cl)c(Cl)c1)Nc1ccccc1    > 0.000871 M

Attention now turns to another entry.
Query string: Please look up its MIC: O=C(/C=C/c1ccc(Cl)cc1)Nc1cc(Cl)cc(Cl)c1
Result string: > 0.000776 M

---

- Tested on: vancomycin-resistant E. faecalis (VRE) 368
- testDetails: In vitro antienterococcal activity, microtitration broth MIC
- Format: cell-based, Enterococcus faecalis
- conditions: 24 h; VRE 368; read-out: log(1/MIC [M]) VRE2 (converted)
// reported MIC per item

Query string: Please look up its MIC: O=C(/C=C/c1ccc(Cl)cc1)Nc1cc(Cl)cc(Cl)c1
Result string: > 0.000776 M

Query string: Please look up its MIC: O=C(/C=C/c1ccc(Cl)c(Cl)c1)Nc1ccccc1
Result string: > 0.000871 M

Query string: Please look up its MIC: O=C(/C=C/c1ccc(Cl)cc1)Nc1cccc(C(F)(F)F)c1
Result string: > 0.000794 M

---

- System: vancomycin-resistant E. faecalis (VRE) 342B
- testDetails: In vitro antienterococcal activity, microtitration broth MIC
- Format: cell-based, Enterococcus faecalis
- conditions: 24 h, read-out: MIC VRE1
observedProperty: MIC

Query string: Which MIC is reported with vancomycin-resistant E. faecalis (VRE) 342B for this entry: O=C(/C=C/c1ccc(Cl)cc1)Nc1cccc(C(F)(F)F)c1 [1i] ?
Result string: > 786 µM

Query string: Which MIC is reported with vancomycin-resistant E. faecalis (VRE) 342B for this entry: O=C(/C=C/c1ccc(Cl)cc1)Nc1cc(Cl)cc(Cl)c1 [1p] ?
Result string: > 783 µM

Query string: Which MIC is reported with vancomycin-resistant E. faecalis (VRE) 342B for this entry: O=C(/C=C/c1ccc(Cl)c(Cl)c1)Nc1ccccc1 [2a] ?
Result string: > 876 µM

---

// reported log k per item
- testDetails: Lipophilicity determination by RP-HPLC (log k, log D)
- Assay type: physicochemical
- conditions: MeOH 72%/H2O 28%

Worked set:
>>> df
                               recordsmiles  reportedresult
0    O=C(/C=C/c1ccc(Cl)c(Cl)c1)Nc1ccc(F)cc1          0.9009
1  O=C(/C=C/c1ccc(Cl)cc1)Nc1ccc(OC(F)(F)F)cc1          0.8759
2  O=C(/C=C/c1ccc(Cl)cc1)Nc1ccc(C(F)(F)F)cc1          0.9078
3    O=C(/C=C/c1ccc(Cl)c(Cl)c1)Nc1cccc(F)c1          0.9071
4  O=C(/C=C/c1ccc(Cl)c(Cl)c1)Nc1ccccc1C(F)(F)F          0.6836

Query string: Please look up its log k: O=C(/C=C/c1ccc(Cl)cc1)Nc1ccc(F)cc1
Result string: 0.7808

Query string: Please look up its log k: O=C(/C=C/c1ccc(Cl)cc1)Nc1ccc(Cl)cc1Cl
Result string: 0.9665

These data points were gathered from paper PMC8951032.
